Hello, the source for this data is PubChem BioAssay (NCI), in case you need it.

# System: SK-OV-3 ovarian
# METHOD: NCI tumour cell line growth inhibition, 48 h
PROPERTY: TGI

{"COMPOUND": "Cn1c2c(c3ccccc31)CC(=O)N1CCCC(C1)CC21OCCO1 (stereo unspecified)", "RESULT": "> 100 µM"}
{"COMPOUND": "C=C(CS(=O)(=O)c1ccccc1)C(=O)OCC", "RESULT": "28 µM"}
{"COMPOUND": "Cc1cc(Br)c2nsnc2c1[N+](=O)[O-]", "RESULT": "26.4 µM"}
{"COMPOUND": "CC1(Br)S(=O)(=O)OCCOS1(=O)=O", "RESULT": "> 100 µM"}
{"COMPOUND": "COc1cc(CCC(=O)O)c2cc3ccccc3cc2c1O", "RESULT": "> 100 µM"}
{"COMPOUND": "CCOC(=O)C(Cc1ccc2c(c1)CCC2)Cc1ccc2c(c1)CCC2", "RESULT": "> 100 µM"}
{"COMPOUND": "COC(=O)[C@H]1CC(=O)C=C2CCCC21 (stereo partly specified)", "RESULT": "> 100 µM"}
{"COMPOUND": "COC(=N)c1ncn(Cc2ccccc2)c1N", "RESULT": "> 100 µM"}
{"COMPOUND": "Cc1ccc(-n2nnc3c(sc4ccccc43)c2=O)cc1", "RESULT": "19.4 µM"}
{"COMPOUND": "Cc1ccn2c(-c3csc(Nc4cccc(O)c4)n3)c(C)nc2c1", "RESULT": "11.8 µM"}
{"COMPOUND": "CCN1CCN(CC(=O)Nc2nc3ccc(NCc4ccc(C)cc4)cc3s2)CC1", "RESULT": "12.4 µM"}
{"COMPOUND": "CCCC(=O)n1[nH]c(=O)n(C(C)(C)C)c1=O", "RESULT": "> 100 µM"}
{"COMPOUND": "CC(C)(C)OC(=O)N(CCCCNC(=O)c1ccccc1)CCCNC(=O)c1ccccc1", "RESULT": "> 100 µM"}
{"COMPOUND": "Cc1ccc(S(=O)(=O)Nc2cccc(C)c2C)cc1", "RESULT": "> 100 µM"}
{"COMPOUND": "CCCC1=NC(C(F)(F)F)(C(F)(F)F)N=C(N2CCOCC2)O1", "RESULT": "> 100 µM"}
{"COMPOUND": "S=C1NCCN1C(=S)NC1CCCCC1", "RESULT": "> 100 µM"}
{"COMPOUND": "CC(C)(C)C1CCC(CI)(N=[N+]=[N-])CC1 (stereo unspecified)", "RESULT": "> 100 µM"}
{"COMPOUND": "COc1cc(-c2nccc3[nH]c(-c4cccc5[nH]ccc45)nc23)cc(OC)c1OC", "RESULT": "14.8 µM"}
{"COMPOUND": "COc1ccc(C2c3cc4c(c(OC)c3CC3OCC(=O)C32)OCO4)cc1OC (stereo unspecified)", "RESULT": "> 100 µM"}
{"COMPOUND": "O=C1CSc2sc(=S)sc2S1", "RESULT": "> 100 µM"}
{"COMPOUND": "COc1cc(-c2ccccc2)c(OC)cc1CCl", "RESULT": "> 100 µM"}
{"COMPOUND": "CCOP(=O)(CCN1CCN(CCCCCOc2cc3c(cc2OC)C(=O)N2CCC[C@H]2C=N3)CC1)OCC", "RESULT": "99.8 µM"}
{"COMPOUND": "Cc1cc(CN(Cc2ccccc2)Cc2nc3ccccc3[nH]2)c(O)c(CN(Cc2nc3ccccc3[nH]2)Cc2nc3ccccc3[nH]2)c1", "RESULT": "> 52.3 µM"}
{"COMPOUND": "COc1ccccc1N(C(C)=O)C1=C(Cl)C(=O)c2ccccc2C1=O", "RESULT": "7.33 µM"}
{"COMPOUND": "CC(=O)[C@H]1[C@@H](OCc2ccccc2)O[N+]([O-])=C(C)[C@@H]1c1ccccc1", "RESULT": "> 100 µM"}
{"COMPOUND": "Nc1ncnc2c1ccn2CC=C(CO)CO", "RESULT": "> 100 µM"}
{"COMPOUND": "COC[C@@H]1Cc2cc(OC)c3c(c2[C@H](c2ccc(OC)c(OC)c2)[C@H]1COC)OCO3", "RESULT": "> 100 µM"}
{"COMPOUND": "O=C1NC(=O)/C(=C/c2ccc(S(=O)(=O)N/N=C/c3ccccc3)cc2)N1", "RESULT": "> 100 µM"}
{"COMPOUND": "COc1ccc2[nH]c3c(C)c4ccnc(NCCCN(C)CCCN)c4c(C)c3c2c1", "RESULT": "2.47 µM"}
{"COMPOUND": "Cc1ccc(NC(C(=O)c2ccccc2)c2ccccc2)cc1 (stereo unspecified)", "RESULT": "58.2 µM"}
{"COMPOUND": "CCOC(=O)C/C(N)=C(\\C#N)C(=O)OCC", "RESULT": "> 100 µM"}
